- System: AncSZ;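 note: 11-residue human phosphosite peptides and single-mutation variants displayed on the E. coli surface, counted by deep sequencing, each peptide's frequency after selection divided by its frequency in the unselected input library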;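 note: frequency after pTyr selection over input frequency; kinase dosed for 20-30% of maximal phosphorylation in three min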
- test-protocol: phosphorylation enrichment, bacterial display (enrichment ratio); higher = better substrate or ligand; peptides without Tyr show the background
# cutoff 1 applies to phosphorylation enrichment; >= gives condition met, < gives condition not met

[[record]]
chain_sequence = "SVTCTYSPALH [TP53_Y126_N131H]"
class_name = "condition met"

[[record]]
chain_sequence = "ALTDNYMYLVI [HAGH_Y61]"
class_name = "condition met"

[[record]]
chain_sequence = "QRRLVYYERGA [RYR1_Y245_G248R]"
class_name = "condition not met"


Prompt line: Could you verify whether the entry GRSTFYWPSPR [GAGE12J_Y10_R13S_YF] shows phosphorylation enrichment of no less than 1?
Response line: condition not met

Prompt line: # bool: phosphorylation enrichment of EHEALYLEADL [CENPF_Y1920] >= 1
Response line: condition met

###

- target-or-system: Grb2 SH2 (UniProt P62993)
- Sequence (P62993 whole entry, looked up): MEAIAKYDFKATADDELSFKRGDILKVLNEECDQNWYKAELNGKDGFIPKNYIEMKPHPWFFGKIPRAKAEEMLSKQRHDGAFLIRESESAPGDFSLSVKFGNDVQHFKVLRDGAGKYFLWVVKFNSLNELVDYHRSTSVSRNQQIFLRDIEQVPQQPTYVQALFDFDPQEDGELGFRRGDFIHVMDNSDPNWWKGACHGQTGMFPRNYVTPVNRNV
- test-protocol: SH2 binding enrichment of the phosphorylated peptide, bacterial display (enrichment ratio); higher = better substrate or ligand; peptides without Tyr show the background
A collection of sequences and their measured SH2 binding enrichment
Enter a number only.

Solved entries (count: 6):
[[record]]
chain_sequence = "MGCVNYGAYIN [GLB1_Y485_R482C]"
target_or_system = "Grb2 SH2 (UniProt P62993)"
observed_value = 1.44

[[record]]
chain_sequence = "IKSSIYDNRKE [ARAP2_Y380]"
target_or_system = "Grb2 SH2 (UniProt P62993)"
observed_value = 0.934

[[record]]
chain_sequence = "YRDALYKFIVD [PHEX_Y250_M253I]"
target_or_system = "Grb2 SH2 (UniProt P62993)"
observed_value = 0.774

[[record]]
chain_sequence = "PSSNLYYRWLT [CNGA3_Y168]"
target_or_system = "Grb2 SH2 (UniProt P62993)"
observed_value = 1.32

[[record]]
chain_sequence = "PSTYRYERGSR [INPPL1_Y663_P659S]"
target_or_system = "Grb2 SH2 (UniProt P62993)"
observed_value = 0.814

[[record]]
chain_sequence = "ITQRAYRRHLL [SCN1A_Y1926_I1922T]"
target_or_system = "Grb2 SH2 (UniProt P62993)"
observed_value = 0.69


Prompt line: Given the sequence SVIVPYEPPEV [TP53_Y220_V217I] , what is its reported SH2 binding enrichment?
Response line: 0.731

Prompt line: Param item = NDTAGYFIIGG [SEL1L3_Y399] ; retrieve measured SH2 binding enrichment.
Response line: 0.693

Prompt line: What value of SH2 binding enrichment has been recorded for this entry: FPPDGYSRHFE [CTNND1_Y213_YF]
Response line: 0.818

Prompt line: If you can, please state the reported SH2 binding enrichment value of DAVKHYMQFQK [CNGA2_Y395_R399Q] .
Response line: 0.768

Prompt line: Quick check: SH2 binding enrichment of GQLIVYAPPEW [CNTN6_Y315_F314V] ?
Response line: 0.984

Prompt line: Entry KPPPTYESEEE [BRD4_Y599] : reported SH2 binding enrichment = ?
Response line: 0.977

Prompt line: Name the recorded SH2 binding enrichment for IPGGIYDADLN [CST4_Y35] .
Response line: 0.991

Prompt line: Requested read-out: SH2 binding enrichment. Entry: QYQEKYKQVEQ [HCN4_Y531]
Response line: 0.958
